src = the nanobody polyreactivity screen of Harvey et al. (2022)

- protocol summary: yeast display, Sf9 membrane polyspecificity reagent, FACS + sequencing; frameworks hold sequencing errors
assay endpoint: polyreactivity (PSR sort gate)

[[record]]
sequence_chain = "QVQLVESGGGLVQAGGSLRLSCAASGFIFAYYVMGWYRQAPGKERELVAAISRGGGSTYYADSVKGRFTISRDNAKNTVYLQMNSLKPEDTAVYYCATYSHALRYDYWGQGTQVTVSS"
assay_endpoint = "polyreactivity (PSR sort gate)"
result = "high polyreactivity"

[[record]]
sequence_chain = "QVQLVESGGGLVQAGGSLRLSCAASGRIFYYYTMGWYRQAPGKERELVAAITSNGGSTYYADSVKGRFTISRDNAKNTVYLQMNSLKPEDTAVYYCAADSYSYRYYYWGQGTQVTVSS"
assay_endpoint = "polyreactivity (PSR sort gate)"
result = "high polyreactivity"

